Tested on: HL-60
Assay: NCI tumour cell line growth inhibition, 48 h
The source made the active and inactive calls. No stated cut-off is given here; in the data, active = GI50 up to about 1.1 µM and inactive = higher.
Recorded measurements of GI50, one per entry

compound: COc1ccc(-c2ncnc(-c3ccc(OC)c(OC)c3)n2)cc1OC
GI50: > 100 µM (inactive)
--
compound: COC(=O)C(C)(C)[C@@H]1OC(=O)N(S(=O)(=O)c2c(C)cc(C)cc2C)[C@H]1C(C)C
GI50: 23.6 µM (inactive)
--
compound: CC(=O)c1ccc2c(c1)CC1(C2)Cc2cc3c(cc2C1=O)CCC3 (stereo unspecified)
GI50: 14.3 µM (inactive)
--
compound: N/N=C(\Cc1ccccc1)NN=C(N)N
GI50: > 100 µM (inactive)
--
compound: COc1cc2c(cc1OC)C(=O)N(NC1=NCCN1)C2=O
GI50: > 100 µM (inactive)
--
compound: Cc1ccc(/C=N/Nc2ccccn2)s1
GI50: > 76.7 µM (inactive)

----------
System: Hs-578T
Assay: NCI tumour cell line growth inhibition, 48 h
Active and inactive are the calls of the source. No stated cut-off is given here; in the data, active = GI50 up to about 1.1 µM and inactive = higher.
GI50 by entry:

compound: CCOC(=O)c1ccc(C(=O)OCC)n1-c1cc2cc(c1)CSCc1cc(cc(-n3c(C(=O)OCC)ccc3C(=O)OCC)c1)CSC2
GI50: > 10 µM (inactive)
--
compound: Oc1c2ccccc2c2c3c(cccc13)N=N2
GI50: 55.1 µM (inactive)
--
compound: Oc1cc(O)c2c(c1)O[C@H](c1cc(O)c(O)c(O)c1)[C@H](O)C2 [EPIGALLOCATECHIN]
GI50: 52 µM (inactive)
--
compound: COc1cc(OC)c2c(C)cc(=O)oc2c1
GI50: 61.1 µM (inactive)
--
compound: COc1ccc(/C=C2\Sc3nnc(-c4ccccc4)n3N=C2c2cc(F)c(Cl)cc2Cl)cc1OC
GI50: 20.6 µM (inactive)
--
compound: CCSC1=N/C(=C\c2ccco2)C(Cl)=N1
GI50: > 100 µM (inactive)
--
compound: O=c1cc(O)c2ccccc2o1 [4-HYDROXYCOUMARINS]
GI50: > 100 µM (inactive)
--
compound: C[C@]12CC[C@H](O)C=C1CC[C@@H]1[C@@H]2CC[C@]2(C)C(=N/O)/C(=C/c3ccncc3)C[C@@H]12
GI50: 19.4 µM (inactive)
--
compound: O=C(O)C(=C\c1ccc2c(c1)OCO2)/C(=C/c1ccc2c(c1)OCO2)C(=O)O
GI50: > 100 µM (inactive)

----------
System: IGROV-1
Assay: NCI tumour cell line growth inhibition, 48 h
Active and inactive are the calls of the source. No stated cut-off is given here; in the data, active = GI50 up to about 1.1 µM and inactive = higher.
parameter: GI50

compound: CNC(=O)NCNC(=O)NC
parameter: GI50
result: > 100 µM (inactive)
--
compound: OC1C2CCC3C2CC(C(O)(c2ccccc2)c2ccccc2)C13 (stereo not drawn)
parameter: GI50
result: 23.9 µM (inactive)
--
compound: COc1cc(CNc2ccc3nc4n(c(=O)c3c2)CCCCC4)cc(OC)c1OC
parameter: GI50
result: 95.1 µM (inactive)
--
compound: Cc1ccc(S(=O)(=O)N/N=C2/C3C(CC2(C)C)C2(C)CCCC3(C)C2O)cc1 (stereo not drawn)
parameter: GI50
result: 25 µM (inactive)
--
compound: C/C(=N\NC(=S)Nc1ccccc1)c1nc2cccnc2[nH]1
parameter: GI50
result: 3.48 µM (inactive)
--
compound: CC/N=C(\N)CSS(=O)(=O)O
parameter: GI50
result: > 100 µM (inactive)
--
compound: CC(C)(C)c1cc(/C=C2/NC(=O)NC2=O)cc(C(C)(C)C)c1O
parameter: GI50
result: 16 µM (inactive)
--
compound: O=C(O)C(=C\c1ccc2c(c1)OCO2)/C(=C/c1ccc2c(c1)OCO2)C(=O)O
parameter: GI50
result: > 100 µM (inactive)
--
compound: N/C(=N\c1ccccc1Cl)c1ccccc1N
parameter: GI50
result: 45.8 µM (inactive)
--
compound: CC/C=C/C[C@H](O)[C@H]1C[C@H]2O[C@H](CC(=O)OC)C[C@H]2O1
parameter: GI50
result: > 100 µM (inactive)
--
compound: COc1ccc(/C=C/C(=O)c2cc(CN(C)C)c(O)c(CN(C)C)c2)cc1
parameter: GI50
result: 37 µM (inactive)
--
compound: O=C1O[C@H]2C3C4CCC(C4[C@@H]2I)[C@H]13 (stereo partly drawn)
parameter: GI50
result: > 100 µM (inactive)
--
compound: COc1ccc(/C=C2\NC(=S)N(/C=C3\C(=O)Oc4ccccc4C3=O)C2=O)cc1OC
parameter: GI50
result: 78.3 µM (inactive)
--
compound: CN1CCN(C(=O)CCC(=O)Nc2cc3c(c4ccccc24)-c2ccc4ccccc4c2C3)CC1
parameter: GI50
result: 1.15 µM (inactive)
--
compound: CC1C(c2cc(C(C)(C)C)c(O)c(C(C)(C)C)c2)c2cc3c(cc2OC1N1CCOCC1)OCO3 (stereo not drawn)
parameter: GI50
result: 36.2 µM (inactive)
--
compound: CCCCCCCCCCCCNC(=S)OC
parameter: GI50
result: 11.5 µM (inactive)
--
compound: Cc1ccc(/C=N/Nc2ccccn2)s1
parameter: GI50
result: > 100 µM (inactive)
--
compound: O=C1Nc2c(Cl)cc(Cl)cc2/C1=N/NC(=O)c1ccccc1O
parameter: GI50
result: 12.3 µM (inactive)
--
compound: NN=C(S)Nc1cccc(Cl)c1
parameter: GI50
result: > 100 µM (inactive)
--
compound: Cc1ccccc1NC(=O)CSc1nnc(Cc2ccccc2)o1
parameter: GI50
result: > 100 µM (inactive)
--
compound: O=C(CCC(NC(=O)OCc1ccccc1)C(=O)OCc1ccccc1)Nc1cccc(OCc2ccccc2)c1 (stereo not drawn)
parameter: GI50
result: 30.3 µM (inactive)
--
compound: O=C1c2ccccc2C(=O)c2[nH]c(=O)c(/C=N/Nc3ccc([N+](=O)[O-])cc3)nc21
parameter: GI50
result: 14.4 µM (inactive)
--
compound: Cc1ccc(C2(O)c3ccccc3C(=O)N(C)C2(O)c2ccc(C)cc2)cc1 (stereo not drawn)
parameter: GI50
result: > 100 µM (inactive)
